Please provide measured protein stability index for the entries that follow.
B1: TRIM29 (parent)
chain: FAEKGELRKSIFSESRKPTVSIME

# Variants of: B1
# ASSAY_NAME: protein stability index of a GFP-peptide fusion (GPS, HEK-293T) (PSI 1-6); higher = more stable;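 also: lentivirally expressed fusions sorted by FACS into six bins by GFP to DsRed ratio, PSI derived from sequencing read proportions per bin multiplied by bin number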
# SETUP_CONDITIONS: c terminus: a fixed tail appended

Query: Sample `M23H` — what was its protein stability index?
Result: 2.56

Query: Follow-up item: `V20L`
Result: 1.23

Query: Follow-up item: `S13N`
Result: 1.75

Query: Follow-up item: `S13V`
Result: 2.58

Query: Follow-up item: `M23S`
Result: 1.58

Query: Follow-up item: `M23P`
Result: 1.84

Query: Follow-up item: `K4I`
Result: 2.1

Query: Follow-up item: `F12N`
Result: 3.43

Query: Follow-up item: `F12W`
Result: 1.14

Query: Follow-up item: `I22R`
Result: 1.34

Query: Follow-up item: `I22V`
Result: 1.86

Each recorded value in this set is attributed to the supplement of paper PMC10567573.
